Biological target: human Cereblon WT GST-tagged protein (Homo sapiens)
Construct: purchased CISBIO 64BDCRBNPEH
Sequence (Q96SW2 whole entry): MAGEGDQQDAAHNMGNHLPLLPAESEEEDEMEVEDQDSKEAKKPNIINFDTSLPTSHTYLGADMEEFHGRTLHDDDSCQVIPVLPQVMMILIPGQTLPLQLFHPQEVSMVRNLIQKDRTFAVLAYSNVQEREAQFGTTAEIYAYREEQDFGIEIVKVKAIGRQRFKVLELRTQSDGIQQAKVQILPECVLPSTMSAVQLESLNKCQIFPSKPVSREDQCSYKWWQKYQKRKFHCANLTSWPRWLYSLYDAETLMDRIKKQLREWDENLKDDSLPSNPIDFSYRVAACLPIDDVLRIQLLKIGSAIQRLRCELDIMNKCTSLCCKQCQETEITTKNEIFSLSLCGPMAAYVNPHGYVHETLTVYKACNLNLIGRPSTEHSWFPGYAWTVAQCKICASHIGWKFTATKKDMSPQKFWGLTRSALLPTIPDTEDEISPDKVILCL
Assay: CRBN binding, HTRF CEREBLON BINDING kit
Settings: CRBN binding, HTRF CEREBLON BINDING kit
pIC50: −log10 of the molar value.
assay.endpoint: pIC50

molecule | value.reported
CC(C)(O)c1cc2nn(C3CCN(Cc4ccc(N5CCC(=O)NC5=O)cn4)CC3)cc2cc1NC(=O)c1cccc(C(F)(F)F)n1 [GT-05756] | 6.00 to 6.30
CN1CCN([C@@H]2CCCN(c3cnc(C(N)=O)c(Nc4ccc(C5CCN(Cc6ccc(N7CCC(=O)NC7=O)cc6F)CC5)cc4)n3)C2)C1=O [GT-04803] | 6.00 to 6.30
CCc1cc2c(cc1N1CCN(Cc3cccc(N4CCC(=O)NC4=O)c3)CC1)C(C)(C)c1[nH]c3cc(C#N)ccc3c1C2=O [GT-07325] | 6.00 to 6.30

* * *

Measured IC50, listed per entry.
Biological target: human Cereblon WT GST-tagged protein (Homo sapiens)
Construct: purchased CISBIO 64BDCRBNPEH
Experiment: CRBN binding, HTRF CEREBLON BINDING kit
Conditions: CRBN binding, HTRF CEREBLON BINDING kit
assay.endpoint: IC50

molecule | value.reported
O=C1CCN(c2ccc(CN3CCC(N4CCN(c5ccc(-c6cc(F)c7c(c6)C(=O)N(C(C(=O)Nc6nccs6)c6ncn8c6CCC8)C7)cc5)CC4)CC3)nc2)C(=O)N1 (stereo not shown) [GT-06329] | 1000 to 1900 nM
COc1cc2nn(C3CCN(Cc4cccc(NC5CCC(=O)NC5=O)c4)CC3)cc2cc1NC(=O)c1cccc(C(F)(F)F)c1 (stereo not shown) [GT-04749] | 1000 to 1900 nM
CN1CCN([C@@H]2CCCN(c3cnc(C(N)=O)c(Nc4ccc(C5CCN(Cc6ccc(C7CCC(=O)NC7=O)cc6)CC5)cc4)n3)C2)C1=O (stereo partly shown) [GT-04798] | < 500 nM
CN(C)C(=O)c1cc2cnc(Nc3ccc(N4CCN(Cc5ccc(C6CCC(=O)NC6=O)cc5)CC4)cn3)nc2n1C1CCCC1 (stereo not shown) [GT-06339] | < 500 nM
Nc1nc(Nc2ccc(S(=O)(=O)N3CCN(Cc4ccc(N5CCC(=O)NC5=O)cc4)CC3)cc2)nn1C(=O)c1c(F)cccc1F [GT-06751] | 1000 to 1900 nM
O=C1CCC(c2ccc(CN3C[C@@H]4C[C@H]3CN4c3ccc(-c4cc(F)c5c(c4)C(=O)N(C(C(=O)Nc4nccs4)c4ncn6c4CCC6)C5)cc3)cc2)C(=O)N1 (stereo partly shown) [GT-05115] | 500 to 1000 nM
COc1cc(N2CCC(N3CCN(Cc4ccc(C5CCC(=O)NC5=O)cc4)CC3)CC2)ccc1Nc1ncc(Cl)c(Nc2ccccc2P(C)(C)=O)n1 (stereo not shown) [GT-07602] | < 500 nM
COc1ccc2cn(C3CCN(Cc4ccc(C5CCC(=O)NC5=O)c(F)c4)CC3)nc2c1NC(=O)c1cccc(C(F)(F)F)c1 (stereo not shown) [GT-04814] | 500 to 1000 nM
CC(C)(O)c1cc2nn(C3CCN(Cc4ccc(N5CCC(=O)NC5=O)cc4)CC3)cc2cc1NC(=O)c1cccc(C(F)(F)F)n1 [GT-05754] | 500 to 1000 nM
NC(=O)c1ncc(N2CCCCC2)nc1Nc1ccc(C2CCN(Cc3ccc(C4CCC(=O)NC4=O)c(F)c3)CC2)cc1 (stereo not shown) [GT-04786] | < 500 nM
CN(Cc1ccnc(N2CCC(=O)NC2=O)c1)C1CCN(c2ccc(-c3cc(F)c4c(c3)C(=O)N(C(C(=O)Nc3nccs3)c3ncn5c3CCC5)C4)cc2)CC1 (stereo not shown) [GT-07383] | 500 to 1000 nM
NC(=O)c1ncc(N2CCCCC2)nc1Nc1ccc(C2CCN(Cc3ccc(C4CCC(=O)NC4=O)cc3)CC2)cc1 (stereo not shown) [GT-04785] | 500 to 1000 nM
O=C1CCN(c2cccc(CN3CCN(Cc4ccc5c(c4)nc(NC(=O)c4cccc(C(F)(F)F)c4)n5[C@H]4CC[C@@H](CO)CC4)CC3)c2)C(=O)N1 [GT-04977] | 500 to 1000 nM
